assayTarget: T1, human IL-11 (AAH12506.1, Pro22-Leu199) (human, UniProt P20809 22-199)
T1 construct: The range Pro22-Leu199 counts on AAH12506.1; The Octet runs say only 'human IL-11'; also called hIL-11
T1 chain: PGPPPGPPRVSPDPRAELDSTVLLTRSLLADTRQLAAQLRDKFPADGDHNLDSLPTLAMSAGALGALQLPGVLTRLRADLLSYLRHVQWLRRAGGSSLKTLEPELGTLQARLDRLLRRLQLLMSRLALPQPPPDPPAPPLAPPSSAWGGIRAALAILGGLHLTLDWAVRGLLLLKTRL
protocolText: BLI (Octet), antibody captured, human IL-11 in solution
measurementType: kon (M⁻¹ s⁻¹)
# output: bare number, implied unit M⁻¹ s⁻¹

Examples with answers:
hz18A10-VHm2 + hz18A10-VLm9 (antibody, V domains shown, Constant regions not restated for this antibody) VH: EVQLVQSGAEVKKPGASVKVSCKASGYTFTTYNMDWVRQAPGQGLEWMGTIYPGNGDTSYNQKFKGRVTMTRDTSTSTVYMELSSLRSEDTAVYYCARGDLHYLDYWGQGTLVTVSS VL: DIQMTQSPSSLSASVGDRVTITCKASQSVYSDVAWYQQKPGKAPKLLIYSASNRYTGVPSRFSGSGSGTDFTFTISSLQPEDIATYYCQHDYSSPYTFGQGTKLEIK : 404000
hz18A10-VHm3 + hz18A10-VLm19 (antibody, V domains shown, Constant regions not restated for this antibody) VH: EVQLVQSGAEVKKPGASVKVSCKASGYTFTTYDMDWVRQAPGQGLEWMGTIYPGNGDTSYNQKFKGRVTMTRDTSTSTVYMELSSLRSEDTAVYYCARGDLYALDYWGQGTLVTVSS VL: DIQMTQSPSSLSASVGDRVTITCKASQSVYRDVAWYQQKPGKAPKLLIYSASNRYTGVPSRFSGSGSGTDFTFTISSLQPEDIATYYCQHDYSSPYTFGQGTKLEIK : 954000

Now for a further binder.
// query Return kon for the following binder: hz18A10-VH + hz18A10-VLm13 (antibody, V domains shown, Constant regions not restated for this antibody) VH: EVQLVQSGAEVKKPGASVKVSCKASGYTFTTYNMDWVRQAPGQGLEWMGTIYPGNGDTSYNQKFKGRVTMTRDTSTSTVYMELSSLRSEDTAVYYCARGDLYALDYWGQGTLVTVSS VL: DIQMTQSPSSLSASVGDRVTITCKASQSVSNDVAWYQQKPGKAPKLLIYSASRRYTGVPSRFSGSGSGTDFTFTISSLQPEDIATYYCQHDYSSPYTFGQGTKLEIK
// result 673000
